Biological target: human PTHR1 receptor (Homo sapiens, UniProt Q03431)
Sequence (Q03431 27-593): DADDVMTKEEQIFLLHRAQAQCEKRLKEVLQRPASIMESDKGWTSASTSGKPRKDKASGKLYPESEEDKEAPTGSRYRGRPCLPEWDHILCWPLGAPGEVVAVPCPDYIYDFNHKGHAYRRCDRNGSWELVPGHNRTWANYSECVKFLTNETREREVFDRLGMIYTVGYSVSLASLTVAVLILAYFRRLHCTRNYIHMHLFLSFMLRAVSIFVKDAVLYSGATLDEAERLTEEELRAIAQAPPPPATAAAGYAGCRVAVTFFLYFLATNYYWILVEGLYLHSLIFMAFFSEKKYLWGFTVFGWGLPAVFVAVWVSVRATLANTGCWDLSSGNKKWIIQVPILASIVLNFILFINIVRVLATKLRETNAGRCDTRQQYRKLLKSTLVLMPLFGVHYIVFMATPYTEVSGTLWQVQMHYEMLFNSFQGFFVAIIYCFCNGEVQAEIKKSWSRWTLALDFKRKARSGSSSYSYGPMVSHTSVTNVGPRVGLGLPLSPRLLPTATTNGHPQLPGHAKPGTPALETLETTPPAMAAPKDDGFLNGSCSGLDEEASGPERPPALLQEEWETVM
Recorded endpoint: Ki

// known answers, use as guide
Molecule	Ki
CCN1C(=O)N(c2c(F)cc(NCCNC[C@H](O)c3ccccc3)cc2F)c2cc(C#N)ccc2-c2cc(Cl)cnc21 [1-230]	< 100 nM
CCN1C(=O)N(c2c(F)cc(NCCN(C)CCCC(=O)O)cc2F)c2cc(Cl)ccc2-c2cc(Cl)cnc21 [1-70]	< 100 nM
CCN1C(=O)N(c2c(F)cc(N3CC(NCCO)C3)cc2F)c2cc(C#N)ccc2-c2cc(F)cnc21 [1-124]	100 to 1000 nM

For the next question, use this molecule.
Query: Look up and report measured Ki for this entry: CNCCNc1cc(F)c(N2C(=O)N(C(C)C)c3ncc(F)cc3-c3c(F)cc(Cl)cc32)c(F)c1 [1-113]
Reply: < 100 nM
